System: HTT mRNA
Experiment: Splicing RT-qPCR assay, HTT canonical (CJ) and alternative (AJ) junction mRNA
Assay type: cell-based, human
Conditions: Homo sapiens; canonical junction mRNA, RT-qPCR, A673 or K562 cells, 24 hours treatment; read-out: HTT CJ (IC50, decrease in CJ mRNA)
Method: Compounds described herein were used to modulate RNA transcript abundance in cells. The expression of a target mRNA was measured by detecting the formation of an exon-exon junction in the canonical transcript (CJ). A compound mediated exon-inclusion event was detected by observing an increase in formation of a new junction with an alternative exon (AJ). Real-time qPCR assays were used to detect these splicing switches and interrogate the potency of various compounds towards different target genes. […]
pIC50: −log10 of the molar value.
metricName: pIC50

Recorded pIC50 of Cl.Cn1cc2cc(-c3cc(Cl)c4cc(N5CC[C@H](NCCF)C5)cnc4n3)c(O)cc2n1 [Compound 389] , please.
5.00 to 6.00
